Target: CYP2C9 (Homo sapiens)
Sequence (P11712 whole entry): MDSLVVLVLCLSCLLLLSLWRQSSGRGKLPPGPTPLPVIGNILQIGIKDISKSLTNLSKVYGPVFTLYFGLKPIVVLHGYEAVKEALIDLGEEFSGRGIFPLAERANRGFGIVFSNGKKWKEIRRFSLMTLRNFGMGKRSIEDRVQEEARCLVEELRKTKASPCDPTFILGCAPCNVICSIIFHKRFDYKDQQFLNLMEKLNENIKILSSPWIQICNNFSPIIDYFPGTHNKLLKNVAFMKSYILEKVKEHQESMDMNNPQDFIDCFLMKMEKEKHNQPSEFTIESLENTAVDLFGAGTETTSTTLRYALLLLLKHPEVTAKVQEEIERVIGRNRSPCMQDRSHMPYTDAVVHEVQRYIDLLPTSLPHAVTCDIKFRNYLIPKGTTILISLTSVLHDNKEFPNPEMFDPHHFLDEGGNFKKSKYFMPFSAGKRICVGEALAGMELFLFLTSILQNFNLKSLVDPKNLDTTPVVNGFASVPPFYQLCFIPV
Assay: CYP inhibition CYP2C9 (CEREP)
Format: in vitro ADME
Conditions: human, recombinant CYP2C9, human recombinant CYP, single concentration (typically 10 μM); read-out: CYP 2C9 (% inhibition of Control)
Method: All the assays were conducted at CEREP (CEREP, France and USA). Metabolic compound stability was tested in human (CEREP, Ref 607) and mouse (CEREP, Ref: 806) microsomes. […] Briefly, CEREP's CYP inhibition assay uses traditional probe substrates, which are specific to individual CYP isoforms. […] Compounds were tested at single concentrations (typically 10 μM) and data were expressed as percent of control inhibition.
Labels assigned by inhibition at 10 µM range: group A (below 20%), group B (20% to below 30%), group C (30% or more)

>  <compound>
Cc1ccc(C(NC(=O)Cc2ccc3[nH]cc(CCC(=O)O)c3c2)c2ccccc2)c(N2CCCC2)c1 (centres unmarked)

>  <groupLabel>
group C

$$$$
>  <compound>
O=C(O)CCc1c[nH]c2ccc(CC(=O)NC(c3ccccc3)c3ccc(C(F)(F)F)cc3N3CCCC3)cc12 (centres unmarked)

>  <groupLabel>
group B

$$$$
>  <compound>
Cc1ccc(C(NC(=O)Cc2ccc3[nH]cc(CCC(=O)O)c3c2)c2ccccc2)c(N2CCCCC2)c1 (centres unmarked)

>  <groupLabel>
group B

$$$$
>  <compound>
Cc1ccc(C(NC(=O)Cc2ccc3[nH]cc(CCC(=O)O)c3c2)c2ccccc2)c(N(C)C)c1 (centres unmarked)

>  <groupLabel>
group B

$$$$
>  <compound>
COc1ccc(C(NC(=O)Cc2ccc3[nH]cc(CCC(=O)O)c3c2)c2ccccc2)c(N2CCCCC2)c1 (centres unmarked)

>  <groupLabel>
group B

$$$$
>  <compound>
CC(C)CC(NC(=O)Cc1ccc2[nH]cc(CCC(=O)O)c2c1)c1ccccc1N1CCCCC1 (centres unmarked)

>  <groupLabel>
group A

$$$$
>  <compound>
O=C(O)CCc1c[nH]c2ccc(CC(=O)NC(c3cccc(F)c3)c3ccccc3N3CCCCC3)cc12 (centres unmarked)

>  <groupLabel>
group C

$$$$
>  <compound>
O=C(O)CCc1c[nH]c2ccc(CC(=O)NC(c3ccccc3)c3ccccc3N3CCCCC3)cc12 (centres unmarked)

>  <groupLabel>
group A

$$$$
>  <compound>
Cc1ccc(C(NC(=O)Cc2ccc3oc(C(O)c4c(C)noc4C)cc3c2)c2ccccc2)c(C)c1 (single isomer, unassigned) [Cpd. T-4, reference compound]

>  <groupLabel>
group C

$$$$
>  <compound>
O=C(O)CCc1c[nH]c2ccc(CC(=O)NC(c3ccccc3)c3ccc(Br)cc3N3CCCC3)cc12 (centres unmarked)

>  <groupLabel>
group A

$$$$
